experimentSummary: Aqueous solubility
Type: physicochemical
studyConditions: water; mono hydrochloride salt
observable: solubility

What does the data say about its solubility? Entry: C#CCN1CCC[C@H](Nc2cc(-n3nc(C(F)(F)F)c4c3CC(C)(C)CC4=O)ccc2C(N)=O)C1 [Example 121] > 10000 µg/mL
